# test-target: T1, His-tagged recombinant NTCP protein (human sodium taurocholate cotransporting polypeptide) (human), Q14973
# T1 chain: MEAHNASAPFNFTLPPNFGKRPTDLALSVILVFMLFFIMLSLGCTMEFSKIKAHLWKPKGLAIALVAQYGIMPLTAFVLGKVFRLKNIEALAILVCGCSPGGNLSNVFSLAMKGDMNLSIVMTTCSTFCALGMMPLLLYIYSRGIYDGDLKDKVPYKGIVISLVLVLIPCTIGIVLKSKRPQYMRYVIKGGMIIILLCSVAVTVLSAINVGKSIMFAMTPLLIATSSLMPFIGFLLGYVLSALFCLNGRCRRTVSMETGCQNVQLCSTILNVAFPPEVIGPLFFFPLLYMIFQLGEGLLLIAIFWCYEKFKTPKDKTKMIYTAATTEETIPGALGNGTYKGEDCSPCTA
# procedure-text: SPR (Biacore T200), single-cycle kinetics, His-NTCP on Ni2+-NTA chip, peptide as analyte, 1:1 model
assay-endpoint: pKd
Formally, pKd is defined as -log10 of the concentration c, with c in mol/L.

Example cases with answers are listed next.
binder	pKd
YTFTYAQIWIWYYGCT (modifications not checked) [WD4]	7.96
YTWTWQNSFIWIYCT (modifications not checked) [WL5]	8.00
YIWIWPGYVIYCT (modifications not checked) [WL2]	6.80

Value lookup for pKd; key = YLYTWTWHSNWTVTSLCG (modifications not checked) [NTCP-L1]
7.68

Sourced from patent US20210061859A1
